Where do the numbers come from? From paper PMC10786891.

- target.or.test.system: T1, EsCas13d, nuclease-dead (Eubacterium siraeum, UniProt B0MS50, R295A;H300A;R849A;H854A)
- T1 sequence: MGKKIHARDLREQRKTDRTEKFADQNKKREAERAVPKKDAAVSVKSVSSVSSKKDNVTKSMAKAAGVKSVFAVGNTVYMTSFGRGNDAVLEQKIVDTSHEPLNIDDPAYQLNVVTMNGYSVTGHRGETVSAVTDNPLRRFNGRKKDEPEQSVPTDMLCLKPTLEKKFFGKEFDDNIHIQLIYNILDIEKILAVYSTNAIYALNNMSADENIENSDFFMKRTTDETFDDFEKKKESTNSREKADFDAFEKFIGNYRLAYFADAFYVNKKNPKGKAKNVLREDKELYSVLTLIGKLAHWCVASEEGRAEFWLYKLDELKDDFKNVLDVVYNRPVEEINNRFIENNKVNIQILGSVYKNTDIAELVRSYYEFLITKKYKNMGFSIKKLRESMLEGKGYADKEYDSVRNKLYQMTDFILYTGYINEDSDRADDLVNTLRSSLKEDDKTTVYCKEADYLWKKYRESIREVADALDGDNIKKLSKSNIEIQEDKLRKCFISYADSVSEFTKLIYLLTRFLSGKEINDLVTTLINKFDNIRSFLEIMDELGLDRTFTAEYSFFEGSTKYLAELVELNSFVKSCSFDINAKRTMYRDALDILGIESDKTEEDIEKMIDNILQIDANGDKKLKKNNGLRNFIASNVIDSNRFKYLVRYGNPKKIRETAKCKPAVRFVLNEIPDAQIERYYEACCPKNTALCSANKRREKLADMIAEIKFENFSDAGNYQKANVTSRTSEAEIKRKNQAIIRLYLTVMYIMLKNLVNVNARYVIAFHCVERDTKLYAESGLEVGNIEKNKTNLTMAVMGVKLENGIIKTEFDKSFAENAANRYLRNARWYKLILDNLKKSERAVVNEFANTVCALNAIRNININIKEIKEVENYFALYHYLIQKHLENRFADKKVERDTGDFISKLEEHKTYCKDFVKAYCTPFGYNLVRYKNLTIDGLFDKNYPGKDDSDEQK
- test.method.notes: crRNA (strand 1, pre-loaded); Mg2+; 40 mM Tris-HCl pH 7.5, 150 mM NaCl, 6 mM MgCl2, 1 mM DTT, 0.1% Tween-20, 0.2 mg/ml BSA; 25 C; 10 min per concentration, then washed
- condition.context: tags: His6-TwinStrep-SUMO cleaved; N-terminal SNAP kept (SNAP-Surface 488); label: 3' end held by stalled T7 RNA polymerase
measured.attribute: Kd (nM)
Please reply with the bare figure in nM and do not write the unit itself.

Example entries and their recorded answers appear below.
• target 1 A1C,U8A (mixed) RNA 1: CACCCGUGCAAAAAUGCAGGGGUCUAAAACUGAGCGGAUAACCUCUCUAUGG RNA 2: GGGAAUGGAUCCACAUCUACGAAUUCGUACCAUAGAGAGGUUAACCGCUCCCCGAGAUCGGAAGAGCACACGU = 25.5
• target 1 MT 5'PFS UGA 3'PFS ACG (mixed) RNA 1: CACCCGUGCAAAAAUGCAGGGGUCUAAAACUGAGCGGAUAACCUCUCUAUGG RNA 2: GGGAAUGGAUCCACAUCUACGAAUUCUGACCAUAGAGAGGUUAUCCGCUCAACGAGAUCGGAAGAGCACACGU = 110

// query Give a short answer stating reported Kd for target 1 U8C,G13U (mixed) RNA 1: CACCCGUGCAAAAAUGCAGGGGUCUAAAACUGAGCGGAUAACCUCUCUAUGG RNA 2: GGGAAUGGAUCCACAUCUACGAAUUCGUACCAUAGAGAUGUUACCCGCUCACCGAGAUCGGAAGAGCACACGU .
// result 61

// query Give a short answer stating reported Kd for target 1 insG 3' of 14,insU 3' of 6 (mixed) RNA 1: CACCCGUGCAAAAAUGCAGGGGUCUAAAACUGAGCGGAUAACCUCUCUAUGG RNA 2: GGGAAUGGAUCCACAUCUACGAAUUCGUACCAUAGAGAGGGUUAUCCUGCUCACCGAGAUCGGAAGAGCACACGU .
// result 39
